Biological target: CTLA-4 (Homo sapiens (Human)) (UniProt P16410)
Sequence (P16410 36-223): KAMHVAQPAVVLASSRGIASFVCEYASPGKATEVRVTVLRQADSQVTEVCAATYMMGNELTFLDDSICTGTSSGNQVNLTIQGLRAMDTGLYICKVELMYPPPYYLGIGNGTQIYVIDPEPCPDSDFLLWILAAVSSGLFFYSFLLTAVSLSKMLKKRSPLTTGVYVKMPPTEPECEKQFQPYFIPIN
Assay: flow cytometry, transfected cells
property-name: MFI (MFI)

binder="ICOSL-Fc N52R/N57Y/Q100R (Fc fusion) DTQEKEVRAMVGSDVELSCACPEGSRFDLNDVYVYWQTSESKTVVTYHIPQRSSLEYVDSRYRNRALMSPAGMLRGDFSLRLFNVTPQDEQKFHCLVLSRSLGFQEVLSVEVTLHVAANFSVPVVSAPHSPSQDELTFTCTSINGYPRPNVYWINKTDNSLLDQALQNDTVFLNMRGLYDVVSVLRIARTPSVNIGCCIENVLLQQNLTVGSQTGNDIGERDKITENPVSTGEKNAAT" property_name=MFI recorded_number=4270
binder="ICOSL-Fc N52S/N57H/Q100E (Fc fusion) DTQEKEVRAMVGSDVELSCACPEGSRFDLNDVYVYWQTSESKTVVTYHIPQSSSLEHVDSRYRNRALMSPAGMLRGDFSLRLFNVTPQDEQKFHCLVLSESLGFQEVLSVEVTLHVAANFSVPVVSAPHSPSQDELTFTCTSINGYPRPNVYWINKTDNSLLDQALQNDTVFLNMRGLYDVVSVLRIARTPSVNIGCCIENVLLQQNLTVGSQTGNDIGERDKITENPVSTGEKNAAT" property_name=MFI recorded_number=302000
binder="ICOSL-Fc N52R/N57Y/Q100S (Fc fusion) DTQEKEVRAMVGSDVELSCACPEGSRFDLNDVYVYWQTSESKTVVTYHIPQRSSLEYVDSRYRNRALMSPAGMLRGDFSLRLFNVTPQDEQKFHCLVLSSSLGFQEVLSVEVTLHVAANFSVPVVSAPHSPSQDELTFTCTSINGYPRPNVYWINKTDNSLLDQALQNDTVFLNMRGLYDVVSVLRIARTPSVNIGCCIENVLLQQNLTVGSQTGNDIGERDKITENPVSTGEKNAAT" property_name=MFI recorded_number=504000
